System: Fibroblast
Assay: Multiplex assay against human fibroblast
Assay type: toxicity, cell-based
Conditions: 24 h, 10 µM, compound concentration 10 uM, replicate 2
value.type: Population Membrane Permeable-Phenotype (%)
The response must be a number in % with no trailing unit.

Entry Cc1ccc(OCC(O)C(C)NC(C)C)c2c1CCC2.Cl (stereo not drawn) : reported Population Membrane Permeable-Phenotype (%) = ?
4

Entry Nc1nc(CC(=O)Nc2ccc(CCNC[C@H](O)c3ccccc3)cc2)cs1 [MIRABEGRON] : reported Population Membrane Permeable-Phenotype (%) = ?
4

Entry `COc1cc2nc(N3CCN(C(=O)COc4c(OC)cccc4C(C)C)CC3)nc(N)c2cc1OC.Cl.Cl` : reported Population Membrane Permeable-Phenotype (%) = ?
4
